Record form. Attribute: self-cleavage. Fill in for each entry.
B1: HDV Ribozyme (parent)
chain: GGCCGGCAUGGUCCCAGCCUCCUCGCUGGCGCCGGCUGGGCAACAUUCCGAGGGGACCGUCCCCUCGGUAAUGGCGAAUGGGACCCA

variants of: B1; test: self-cleavage, relative activity (ratio to wild type); higher = more cleavage; co-transcriptional
Returns: the value as a bare number; no unit string appended.

In: // lookup self-cleavage for `GGCCGGCAUGGUCCCAGCCUCCUCGUUGGCGCCGGCUGGGCAACAUUCCGAGGGGACCGUCCCCUCGGUAAUGGCGAAUGGGAACCA`
Out: 1.15

In: Another variant: `GGCCGGCAUGGUCCCAGCCUCCUCGCUGGGGCCGGCUGGGCAACAUUCUGAGGGGACCGUCCCCUCGGUAAUGGCGAAUGGGACCCA`
Out: 0.0511

In: Another variant: `GGCCGGCAUGGUCCCAGCCUCCUUGCUGGCGCCGGCUGGCCAACAUUCCGAGGGGACCGUCCCCUCGGUAAUGGCGAAUGGGACCCA`
Out: 0.138

In: Another variant: `GGCCGGCAUGGUCCCAGCCUCCUCGCUGGCGCCGGCUUGGCAACAUUCCGAGGGGACCGUCCCCUCGGUAAUGGCGAAUGGCACCCA`
Out: 0.218

In: Another variant: `GGCCGGCAUGGUCCCAGCCUCCUCGCUGGCGCCGGCUGGGCAACAUUCCGAGUGGACCGUCCCCUCGGUAAUGGCGAAUGUGACCCA`
Out: 0.28

In: Another variant: `GGCCGGCUUGGUCCCAGCCUCCUCGCUGGAGCCGGCUGGGCAACAUUCCGAGGGGACCGUCCCCUCGGUAAUGGCGAAUGGGACCCA`
Out: 0.299

In: Another variant: `GGCCGGCAUGGUCCCUGCCUCCUCGCUGGCGCCGGCUGGGCAACAUUCCGAGGGGACCCUCCCCUCGGUAAUGGCGAAUGGGACCCA`
Out: 0.997

In: Another variant: `GGCCGGCAUGGUCCCAGCCUCCUCGCUGGCGCCGGCUGGGCAACAUUCCGAGGGGACCGUCCCCUCGAUAAUGCCGAAUGGGACCCA`
Out: 0.314

In: Another variant: `GGCCGGCAUGGUCCCAUCCUCCUCGCAGGCGCCGGCUGGGCAACAUUCCGAGGGGACCGUCCCCUCGGUAAUGGCGAAUGGGACCCA`
Out: 0.486

In: Another variant: `GGCCGGCAUGGUCCCAGCCUCCUCGCUGGCGCCGGCUGGGCAACAUUCCGAGGGGUCCGUCCCCUCGAUAAUGGCGAAUGGGACCCA`
Out: 0.819

In: Another variant: `GGCCGACAUGGUCCCAGCCUCCUCGCUGGCGCCGGCUGGGCAACAUUCCGAGGGGACCGUCCCCUCGGUAAUAGCGAAUGGGACCCA`
Out: 0.256

In: Another variant: `GGCCGGCAUGGUCCCAGCCUCCUCGCUGGCGCCGGCUGGGCAACAUACCGAGGGGACUGUCCCCUCGGUAAUGGCGAAUGGGACCCA`
Out: 1.03

In: Another variant: `GGCCGGCAUGGUCCCAGCCUCCUCGCUGGCGCCGGCUGGGCAACAUUCCGAGGGGACCGUCCCUUCGGUAAUGGCGAAUGAGACCCA`
Out: 0.318

In: Another variant: `GGCCGGCAUGGUCCCAGCCUCCUCGCUGGCGCCGGCUGGGCAACAUUCCAACGGGACCGUCCCCUCGGUAAUGGCGAAUGGGACCCA`
Out: 0.672

In: Another variant: `GGCCGGCAUGGUCCCAGCCUCCACGCUGGCGCCGGCUGGGCAACAUUCCGAGGGGACCGUCCCCUCGGUAAAGGCGAAUGGGACCCA`
Out: 0.773

In: Another variant: `GGCCGGCAUGGUCCCAGCCUCCUCGCUGGCGCCGGCUGGGCAACAUUCCGAGGGGACCGUCCCCUCGGUAAUGGCGAAUGGGACGUA`
Out: 0.858

In: Another variant: `GGCCGGCAGGGUCCCAGCCUCCUCGCUGGCGACGGCUGGGCAACAUUCCGAGGGGACCGUCCCCUCGGUAAUGGCGAAUGGGACCCA`
Out: 0.277

In: Another variant: `GGCCGGCAUGGUCCCAGCCUCCUCGCUGGCGACGGCUGGGCAACAUUCCGAGGGGACCGUCCCCUCGAUAAUGGCGAAUGGGACCCA`
Out: 0.185

In: Another variant: `GGCCGGCAUGGUCCCAGUCUCCUCGCUGGCGCCGGCUGGGCAACAUUCCGAGGGGACCGUCCCCUCGGUAAUGGCGAAUGGCACCCA`
Out: 0.166

In: Another variant: `GGCCAGCAUGGUCCCAGCCUCCUCGCUGGCGCCGGCUGGGCAACAUUCCGAGGGGACCGUCCCCUCGGUAAUGGCGAAUCGGACCCA`
Out: 0.0563

In: Another variant: `GGCCGGCAUGGUCCCAGCCUCCUCGCUGGCGCCGGCUGGGCAACAUUCCGAGGGGACCGUCCCAUCGGUAAUGGCGCAUGGGACCCA`
Out: 0.344

In: Another variant: `GGCCGGCAUGGUCCCAGCCUCCUCGCUGGCGCCGGCUGGGCAACAUUCCGAAGGCACCGUCCCCUCGGUAAUGGCGAAUGGGACCCA`
Out: 0.923
